Target: RalA (Homo sapiens, UniProt P11233)
Construct: expressed in transfected cells; host or cells: HepG2 (from b6; the methods paragraph names no cell line)
Sequence (P11233 1-203 limits assumed): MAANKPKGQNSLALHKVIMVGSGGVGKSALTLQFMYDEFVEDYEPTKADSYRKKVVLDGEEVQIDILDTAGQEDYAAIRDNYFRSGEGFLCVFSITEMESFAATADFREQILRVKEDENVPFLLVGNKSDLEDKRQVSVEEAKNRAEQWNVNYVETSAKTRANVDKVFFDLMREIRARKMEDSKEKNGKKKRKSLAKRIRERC
Test: ELISA-based RalA activity assay (RalBP1-coated plates, lysates of compound-treated cells)
Assay type: biochemical
Conditions: 1 μM compound; % control = activity remained
// reported remaining activity at 1 µM per item
property: remaining activity at 1 µM

compound="Cc1ccc(S(=O)(=O)NC2=C(C#N)C(c3ccncc3)c3c(C)nn(-c4ccccc4Cl)c3O2)cc1 (centres unmarked)" target_under_test="RalA (Homo sapiens, UniProt P11233)" property="remaining activity at 1 µM" reported_measurement=44%
compound="Cc1ccc(S(=O)(=O)NC2=C(C#N)C(c3ccsc3)c3c(C)nn(-c4ccccc4Cl)c3O2)cc1 (centres unmarked)" target_under_test="RalA (Homo sapiens, UniProt P11233)" property="remaining activity at 1 µM" reported_measurement=56%
compound="Cc1ccc(S(=O)(=O)NC2=C(C#N)C(c3cccc(Br)c3)c3c(C)nn(-c4ccccc4)c3O2)cc1 (centres unmarked)" target_under_test="RalA (Homo sapiens, UniProt P11233)" property="remaining activity at 1 µM" reported_measurement=47%
compound="Cc1ccc(S(=O)(=O)NC2=C(C#N)C(c3ccc(C(F)(F)F)cc3)c3c(C)nn(-c4ccccc4)c3O2)cc1 (centres unmarked)" target_under_test="RalA (Homo sapiens, UniProt P11233)" property="remaining activity at 1 µM" reported_measurement=46%
compound="Cc1ccc(S(=O)(=O)NC2=C(C#N)C(c3cccc(Cl)c3)c3c(C)nn(-c4ccccc4)c3O2)cc1 (centres unmarked)" target_under_test="RalA (Homo sapiens, UniProt P11233)" property="remaining activity at 1 µM" reported_measurement=40%

###

biological target: RalA (Homo sapiens); construct: expressed in transfected cells; host or cells: HepG2 (from b6; the methods paragraph names no cell line); assay: ELISA-based RalA activity assay (RalBP1-coated plates, lysates of compound-treated cells); assay type: biochemical; conditions: 1 μM compound; % control = activity remained
For each record, check the reported remaining activity at 1 µM: if it is below 60% write Yes, else write No.

molecule="Cc1ccc(S(=O)(=O)NC2=C(C#N)C(c3ccccc3)c3c(C)nn(-c4ccc(Cl)cc4)c3O2)cc1 (stereo not shown)" label_class=No
molecule="Cc1ccc(C2C(C#N)=C(NS(=O)(=O)c3ccc(C)cc3)Oc3c2c(C)nn3-c2ccccc2)cc1 (stereo not shown)" label_class=No
molecule="Cc1nn(-c2ccccc2)c2c1C(c1ccc(C(F)(F)F)cc1)C(C#N)=C(NS(=O)(=O)c1ccc(C(F)(F)F)cc1)O2 (stereo not shown)" label_class=Yes
molecule="Cc1nn(-c2ccccc2)c2c1C(c1ccc(C(F)(F)F)cc1)C(C#N)=C(NS(=O)(=O)c1ccc(F)cc1F)O2 (stereo not shown)" label_class=Yes
molecule="COc1cccc(C2C(C#N)=C(NS(=O)(=O)c3cccc([N+](=O)[O-])c3)Oc3c2c(C)nn3-c2ccccc2Cl)c1 (stereo not shown)" label_class=No
molecule="Cc1ccc(S(=O)(=O)NC2=C(C#N)C(c3ccc(Cl)c(Cl)c3)c3c(C)nn(-c4ccccc4)c3O2)cc1 (stereo not shown)" label_class=No
